- Test system: breast line MDA468
- protocol.summary: In vitro cell culture growth assay (MTS), MDA468
- Assay type: cell-based, human
- conditions.used: Homo sapiens, 72 h, MDA468 cells, three days after drug treatment
Assign labels as follows, please: Fulfilled for IC50 below 4 µM; Not fulfilled for IC50 equal to or exceeding 4 µM.

# example entries with known answers
compound: CNC(=O)Nc1ccc(-c2nc(N3CCOCC3)c3cnn(C4CCN(C(=O)OCCF)CC4)c3n2)cc1 [Compound 878]
answer.label: Fulfilled
--
compound: COC(=O)N1CCC(n2ncc3c(N4CCOCC4)nc(-c4ccc(NC(=O)Nc5ccc(N6CCOCC6)nc5)cc4)nc32)CC1 [Compound 911]
answer.label: Fulfilled
--
compound: C1=C(c2nc(N3CCOCC3)c3cnn(-c4ccccc4)c3n2)CCOC1 [Compound 98]
answer.label: Not fulfilled
--
compound: NCC(=O)Nc1ccc(-c2nc(N3CCOCC3)c3cn[nH]c3n2)cc1 [Compound 282]
answer.label: Not fulfilled

Take the compound COC(=O)N1CCC(n2ncc3c(N4CCOCC4)nc(-c4ccc(NC(=O)NCCF)cc4)nc32)CC1 [Compound 732] and say whether its IC50 is less than 4 µM.
Fulfilled

Given O=C(c1ccc(F)nc1)N1CCC(n2ncc3c(N4CCOCC4)nc(-c4ccc5[nH]ccc5c4)nc32)CC1 [Compound 201] , is recorded IC50 strictly lower than 4 µM?
Fulfilled

Please let me know if COC(=O)N1CCC(n2ncc3c(N4CCOC(C)C4)nc(-c4ccc(NC(=O)NCCO)cc4)nc32)CC1 (centres unmarked) [Compound 845] shows IC50 below 4 µM.
Fulfilled
